test-system: G/T mismatch-specific thymine DNA glycosylase (Homo sapiens) (UniProt Q13569);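 also: human TDG cleavage of quenched duplex DNA oligonucleotides coupled to APE1, strand release read as fluorescence at 594 nm, inhibition of TDG activity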
Sequence (Q13569 whole entry): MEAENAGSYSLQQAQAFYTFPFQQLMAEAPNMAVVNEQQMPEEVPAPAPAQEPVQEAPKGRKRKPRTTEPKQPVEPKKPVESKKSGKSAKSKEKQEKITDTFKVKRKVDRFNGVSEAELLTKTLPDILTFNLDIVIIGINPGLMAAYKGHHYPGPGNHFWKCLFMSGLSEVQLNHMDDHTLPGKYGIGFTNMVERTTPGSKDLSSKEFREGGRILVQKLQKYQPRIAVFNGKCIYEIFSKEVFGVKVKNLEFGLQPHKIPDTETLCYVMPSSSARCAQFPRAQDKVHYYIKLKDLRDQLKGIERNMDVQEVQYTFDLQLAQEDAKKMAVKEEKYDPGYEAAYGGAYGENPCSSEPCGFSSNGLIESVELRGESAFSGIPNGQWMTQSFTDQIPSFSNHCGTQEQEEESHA
particulars: Compound Concentration 10.0 uM, Hit No
Description: Inhibition of TDG by quantifying inhibition of TDG-mediated cleavage and dissociation of quenched duplex DNA oligonucleotides, measured as fluorescence at 594 nm. To generate a functional strand incision and increase turn-over this assay is coupled to APE1.
Returns yes if the recorded inhibition is greater than or equal to 20%, and no otherwise.

1) Oc1cc2c(cc1O)CN(C(=S)NCCc1ccc(Cl)cc1)CCC2
yes

Form field: inhibition at least 20%? Entry: O=c1ccn([C@@H]2O[C@H](COP(=O)(O)OP(=O)(O)O)[C@@H](O)[C@H]2O)c(=O)[nH]1
no

Quick check, inhibition >= 20%? COc1ccc(S(=O)(=O)N2c3ccc(Cl)cc3[C@](O)(c3ccccc3Cl)[C@@H]2C(=O)N2CCC[C@H]2C(N)=O)cc1OC
no

* * *

test-system: N-glycosylase/DNA lyase (Homo sapiens);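 also: OGG1 cleavage of a quenched duplex DNA oligonucleotide, coupled to APE1 for strand incision, read as fluorescence at 594 nm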
particulars: Compound Concentration 10.0 uM, Hit Yes
Description: Inhibition of OGG1 by quantifying inhibition of OGG1-mediated cleavage and dissociation of quenched duplex DNA oligonucleotides, measured as fluorescence at 594 nm. To generate a functional strand incision and increase turn-over this assay is coupled to APE1.
Where a SMILES comes first, the peptide text is derived from it. [ ]: non-standard residue; d: D form. The star is where a group is joined. dPhe(4-NHCONH2) = NC(=O)Nc1ccc(C[C@@H](N)C(=O)O)cc1; Dihydroorotyl(S) = O=C1C[C@@H](C(=O)*)NC(=O)N1; dPhe(4-Cl) = N[C@H](Cc1ccc(Cl)cc1)C(=O)O; Phe(4-NH2) = Nc1ccc(C[C@H](N)C(=O)O)cc1; d2Nal = N[C@H](Cc1ccc2ccccc2c1)C(=O)O; Lys(iPr) = CC(C)NCCCC[C@H](N)C(=O)O; d3Pal = N[C@H](Cc1cccnc1)C(=O)O
reported-metric: inhibition (%)
Number in %, nothing else.

1) C[C@H](CCOc1cccc(CC(=O)O)c1)N(Cc1cccc(C(F)(F)F)c1Cl)CC(c1ccccc1)c1ccccc1
103
2) CN(C)CC#Cc1ccc(OCCCc2sc(N3CCc4cccc(C(=O)Nc5nc6ccccc6s5)c4C3)nc2C(=O)O)c(F)c1
85.3
3) Cc1oc2ccccc2c1Cc1cc(I)c(OCC(=O)O)c(I)c1
91.8
4) CC(=O)N[C@H](Cc1ccc2ccccc2c1)C(=O)N[C@H](Cc1ccc(Cl)cc1)C(=O)N[C@H](Cc1cccnc1)C(=O)N[C@@H](CO)C(=O)N[C@@H](Cc1ccc(NC(=O)[C@@H]2CC(=O)NC(=O)N2)cc1)C(=O)N[C@H](Cc1ccc(NC(N)=O)cc1)C(=O)N[C@@H](CC(C)C)C(=O)N[C@@H](CCCCNC(C)C)C(=O)N1CCC[C@H]1C(=O)N[C@H](C)C(N)=O (Ac-[d2Nal][dPhe(4-Cl)][d3Pal]S[Phe(4-NH2)](Dihydroorotyl(S))[dPhe(4-NHCONH2)]L[Lys(iPr)]P[dA]-NH2)
98.4
5) O=C(NS(=O)(=O)N1CCC1)c1cc(C2CC2)c(OCC23CC4CC(CC(C4)C2)C3)cc1F
93.6

Shift focus to the following entry.
The compound O=S(=O)(Nc1nnc2cc(OCC34CC5CC(CC(C5)C3)C4)c(C3CC3)cn12)C1CC1 showed inhibition equal to 53

* * *

test-system: Endonuclease 8-like 1 (Homo sapiens);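 also: fluorescence at 594 nm from quenched duplex DNA oligonucleotides released by NEIL1 cleavage and strand separation, reported as reduction of this enzyme activity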
particulars: Compound Concentration 10.0 uM, Hit No
Description: Inhibition of NEIL1 by quantifying inhibition of NEIL1-mediated cleavage and dissociation of quenched duplex DNA oligonucleotides, measured as fluorescence at 594 nm.
Reported inhibition values for the following compounds.
Supply the numeric figure in %, leaving out any unit text.

Example compounds with recorded inhibition:
1) Cc1noc(-c2ccc(-c3ccc(CC(=O)O)cc3)cc2)c1NC(=O)O[C@H](C)c1ccccc1Cl
-3.47
2) CN(C(=O)Cc1ccc(Cl)c(Cl)c1)C(CN1CCCC1)c1cccc(OCC(=O)O)c1 (stereo not given)
-0.5
3) CN(c1ncccc1CNc1ccnc(-c2nc3c(F)c(Cl)ccc3[nH]2)n1)S(C)(=O)=O
1.59
4) Cc1cc(C(C)(C)C)c(O)c(C)c1CC1=NCCN1
8.25
5) O=C(Nc1ccc(Cl)cc1)Nc1cccc(-c2cccc(N3CCCC3)n2)c1
8.84
6) CN[C@@H](C)C/C=C/c1cncc(OC(C)C)c1
-3.1
7) COc1ccc(C(=O)N2CCN(C(=O)/C=C/c3ccc(Br)cc3)CC2)cc1
2.61
8) CC1=C(C#N)C(c2ccc3c(c2)c(NC(=O)c2ccccc2C)nn3C)C(C#N)=C(C)N1
-2.11

So, CC(=O)Nc1nc(CN2CCC[C@H](Cc3cc(C)nc(C)c3)C2)cs1 ? Its inhibition was 1.68

The value of inhibition measured for the compound CC(=O)Nc1cccc2c1c(Sc1ccc(Cl)cc1)c(C)n2CC(=O)O turned out to be -0.204
